tgt: NTRK2 (human) (UniProt Q16620)
Sequence (Q16620 whole entry, looked up): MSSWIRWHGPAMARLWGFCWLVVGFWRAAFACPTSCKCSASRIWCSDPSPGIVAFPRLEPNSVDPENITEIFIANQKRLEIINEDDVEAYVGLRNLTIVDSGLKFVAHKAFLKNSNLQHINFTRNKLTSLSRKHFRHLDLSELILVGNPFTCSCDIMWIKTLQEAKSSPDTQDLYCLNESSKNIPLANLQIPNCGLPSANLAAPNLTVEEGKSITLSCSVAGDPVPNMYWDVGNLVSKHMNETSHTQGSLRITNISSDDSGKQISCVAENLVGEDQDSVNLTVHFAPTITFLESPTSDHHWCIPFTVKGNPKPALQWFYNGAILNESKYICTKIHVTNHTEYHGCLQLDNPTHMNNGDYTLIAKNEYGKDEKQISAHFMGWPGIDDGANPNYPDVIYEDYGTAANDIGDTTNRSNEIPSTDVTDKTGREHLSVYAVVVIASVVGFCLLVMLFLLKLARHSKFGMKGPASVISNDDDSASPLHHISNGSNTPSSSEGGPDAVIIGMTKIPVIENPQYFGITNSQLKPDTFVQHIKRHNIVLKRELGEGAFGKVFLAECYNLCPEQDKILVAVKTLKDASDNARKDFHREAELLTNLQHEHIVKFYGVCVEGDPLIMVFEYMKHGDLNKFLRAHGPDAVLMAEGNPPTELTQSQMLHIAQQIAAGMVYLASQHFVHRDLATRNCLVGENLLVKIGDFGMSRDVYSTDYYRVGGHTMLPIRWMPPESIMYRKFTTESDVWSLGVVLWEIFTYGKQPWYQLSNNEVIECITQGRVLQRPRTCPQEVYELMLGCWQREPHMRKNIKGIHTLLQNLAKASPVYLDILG
method notes: KINOMEscan competition binding
recorded conditions: compound 10.0 µM
Reported kinase still bound, per cent of control values for the following molecules.
Please give a number only; it is taken to be in %.

molecule	unit label	kinase still bound, per cent of control
C[C@@H](Oc1cc(-n2cnc3ccc(CN4CCN(C)CC4)cc32)sc1C(N)=O)c1ccccc1C(F)(F)F	%	68
CCN1CCN(Cc2ccc(Nc3ncc4c(n3)N(C)c3ccccc3C(=O)N4C)cc2C(F)(F)F)CC1	%	60
COc1cc(N2CCN(C)CC2)ccc1Nc1nc(N)c(C(=O)c2c(Cl)cccc2Cl)s1	%	80
COc1cc(C(=O)NC2CCN(C)CC2)ccc1Nc1ncc2c(n1)N(C1CCCC1)C(C)CC(=O)N2C (centres undefined)	%	100
CCOc1cc2ncc(C#N)c(Nc3ccc(OCc4ccccn4)c(Cl)c3)c2cc1NC(=O)/C=C/CN(C)C	%	95
CCCS(=O)(=O)Nc1ccc(F)c(C(=O)c2c[nH]c3ncc(-c4ccc(Cl)cc4)cc23)c1F	%	78

What does the data say about its kinase still bound, per cent of control? Entry: CCC(=O)N1CCN(c2ccc(-n3c(=O)ccc4cnc5ccc(-c6cnc7ccccc7c6)cc5c43)cc2C(F)(F)F)CC1
81

Would you mind doing OCCCNc1cc(-c2ccnc(Nc3cccc(Cl)c3)n2)ccn1 as well?
100

Also need Nc1ccc(-c2ccc3ncc4ccc(=O)n(-c5cccc(C(F)(F)F)c5)c4c3c2)cn1 , thanks.
72

Field entry: C=CC(=O)Nc1cc(NC(=O)c2ccc(C)c(NC(=O)c3ccno3)c2)cc(C(F)(F)F)c1
84

Please do the same for O=C(NC1CC1)c1cccc(-c2ccc3c(NC(=O)C4CC4)n[nH]c3c2)c1 as well.
61

Another molecule to check: C=CC(=O)Nc1cccc(Nc2nc(N[C@H]3CC[C@H](N(C)C)CC3)nc3c2ncn3C(C)C)c1
5.3

Another: CN(C)C/C=C/C(=O)Nc1cccc(Nc2ncc3c(n2)N(C)c2ccccc2C(=O)N3C)c1
4

Another molecule: CC[C@@H]1C(=O)N(C)c2cnc(Nc3ccc(C(=O)NC4CCN(C)CC4)cc3OC)nc2N1C1CCCC1
100

Now give it for Cn1c(=O)n(-c2ccc(C(C)(C)C#N)cc2)c2c3cc(-c4cnc5ccccc5c4)ccc3ncc21 too.
100

And what about the molecule N#Cc1c(NC(=O)c2cccc3ccccc23)sc2c1CCCC2 ?
100

Similarly, Cc1ccc(C(=O)Nc2cccc(C(F)(F)F)c2)cc1Nc1cncc(C(N)=O)c1 ?
32

Proceed to COc1cc(C(=O)NC2CCN(C)CC2)ccc1Nc1ncc2c(n1)N(C1CCCC1)CCC(=O)N2C(C)C
100

Proceed to O=C(NOC[C@H](O)CO)c1ccc(F)c(F)c1Nc1ccc(I)cc1F
100

Consider next the molecule Cc1ccc(NC(=O)c2cccc(C(C)(C)C#N)c2)cc1Nc1ccc2ncn(C)c(=O)c2c1 in the same way.
77

Queued: Cc1ccc2nc(NCCN)c3ncc(C)n3c2c1
89

Also O=C1Nc2ccc(I)cc2/C1=C/c1cc(Br)c(O)c(Br)c1 ?
55

And C=CC(=O)Nc1cccc(Oc2nc(Nc3ccc(N4CCN(C)CC4)cc3OC)ncc2Cl)c1 ?
100

Try O=C(O)c1ccc(Nc2ncc3c(n2)-c2ccc(Cl)cc2C(c2c(F)cccc2F)=NC3)cc1 next.
30

The measured values listed here are drawn from the kinase profiling compilation of Christmann-Franck et al. (2016).
